Histamine H1 receptor (Homo sapiens): recorded pKi for assorted compounds
Sequence (P35367 whole entry): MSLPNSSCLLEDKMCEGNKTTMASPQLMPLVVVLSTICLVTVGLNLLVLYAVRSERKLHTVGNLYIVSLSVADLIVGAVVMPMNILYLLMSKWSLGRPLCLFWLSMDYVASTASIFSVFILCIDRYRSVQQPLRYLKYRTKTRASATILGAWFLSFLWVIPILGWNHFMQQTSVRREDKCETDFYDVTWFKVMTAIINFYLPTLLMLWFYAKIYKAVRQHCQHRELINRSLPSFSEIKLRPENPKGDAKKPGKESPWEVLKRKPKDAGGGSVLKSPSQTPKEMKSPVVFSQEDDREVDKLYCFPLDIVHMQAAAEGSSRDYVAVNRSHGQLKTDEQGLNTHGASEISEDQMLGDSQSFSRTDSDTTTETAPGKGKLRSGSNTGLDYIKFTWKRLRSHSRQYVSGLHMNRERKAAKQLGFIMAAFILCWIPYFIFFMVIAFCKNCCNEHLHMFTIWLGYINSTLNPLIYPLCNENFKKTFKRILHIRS
// pKi is dimensionless: -log10 of concentration (M)

INPUT: Item CN(C)c1ccccc1S(=O)(=O)NC(=O)N1CCC(N2CCC(Oc3ccc(Cl)c(Cl)c3)CC2)CC1 has what recorded pKi?
OUTPUT: 7.60

INPUT: Item Cc1ccc(S(=O)(=O)NC(=O)N2CCC(N3CCC(Oc4ccc(F)c(F)c4)CC3)CC2)cc1 has what recorded pKi?
OUTPUT: 6.00

INPUT: Item O=C(O)CCCS(=O)(=O)c1cccc(C(=O)N2CCC(N3CCC(Oc4ccc(Cl)c(Cl)c4)CC3)CC2)c1 has what recorded pKi?
OUTPUT: 7.10

INPUT: Item O=C(O)c1cccc(C(=O)N2CCC(N3CCC(Oc4ccc(Cl)c(Cl)c4)CC3)CC2)c1 has what recorded pKi?
OUTPUT: 6.90

INPUT: Item O=C(O)CCCCn1nnc(-c2ccc(C(=O)N3CCC(N4CCC(Oc5ccc(Cl)c(Cl)c5)CC4)CC3)cc2)n1 has what recorded pKi?
OUTPUT: 7.40

INPUT: Item Cc1ccc(S(=O)(=O)NC(=O)N2CCC(N3CCC(Oc4ccc(Cl)cc4)CC3)CC2)cc1 has what recorded pKi?
OUTPUT: 6.90

INPUT: Item COc1ccc(S(=O)(=O)NC(=O)N2CCC(N3CCC(Oc4ccc(Cl)c(Cl)c4)CC3)CC2)cc1 has what recorded pKi?
OUTPUT: 7.70

---

Voltage-gated inwardly rectifying potassium channel KCNH2 (Homo sapiens): recorded IC50 for assorted molecules
Sequence (Q12809 whole entry): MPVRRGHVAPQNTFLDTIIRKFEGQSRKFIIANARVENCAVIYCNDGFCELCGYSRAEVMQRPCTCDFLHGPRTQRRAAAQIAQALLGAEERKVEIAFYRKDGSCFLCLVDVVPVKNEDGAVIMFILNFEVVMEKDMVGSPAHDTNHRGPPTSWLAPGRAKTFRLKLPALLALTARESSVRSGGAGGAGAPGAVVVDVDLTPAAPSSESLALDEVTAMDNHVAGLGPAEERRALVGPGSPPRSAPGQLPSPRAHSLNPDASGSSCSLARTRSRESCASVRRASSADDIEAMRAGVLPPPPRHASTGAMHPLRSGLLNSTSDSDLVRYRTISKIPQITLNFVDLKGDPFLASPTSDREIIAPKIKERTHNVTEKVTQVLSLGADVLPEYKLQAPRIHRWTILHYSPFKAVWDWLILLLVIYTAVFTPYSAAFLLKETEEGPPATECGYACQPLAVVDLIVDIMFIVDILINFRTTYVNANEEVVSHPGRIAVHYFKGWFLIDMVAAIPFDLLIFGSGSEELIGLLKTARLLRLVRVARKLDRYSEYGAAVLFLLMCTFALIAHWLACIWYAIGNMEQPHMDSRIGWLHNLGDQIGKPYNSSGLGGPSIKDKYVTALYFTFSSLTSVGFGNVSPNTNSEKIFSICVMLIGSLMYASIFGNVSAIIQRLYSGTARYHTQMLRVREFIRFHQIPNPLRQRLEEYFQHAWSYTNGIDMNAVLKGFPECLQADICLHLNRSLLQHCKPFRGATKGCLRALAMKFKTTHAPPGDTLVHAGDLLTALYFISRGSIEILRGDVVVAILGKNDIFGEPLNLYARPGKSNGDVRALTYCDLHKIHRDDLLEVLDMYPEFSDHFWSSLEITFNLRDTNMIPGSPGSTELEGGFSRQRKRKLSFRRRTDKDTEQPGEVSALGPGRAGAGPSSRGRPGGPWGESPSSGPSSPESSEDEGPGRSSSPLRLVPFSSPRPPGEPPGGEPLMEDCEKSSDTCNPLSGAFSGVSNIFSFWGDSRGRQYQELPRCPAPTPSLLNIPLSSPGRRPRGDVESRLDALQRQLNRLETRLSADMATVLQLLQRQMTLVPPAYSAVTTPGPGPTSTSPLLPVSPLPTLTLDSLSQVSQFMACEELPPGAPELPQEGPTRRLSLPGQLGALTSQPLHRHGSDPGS
Lab book: enter the figure in µM, no units written.

INPUT: Request: IC50, test system Voltage-gated inwardly rectifying potassium channel KCNH2 (Homo sapiens), entry O=C(NS(=O)(=O)c1ccccc1)N1CCC(N2CCC(Oc3ccc(Cl)c(Cl)c3)CC2)CC1
OUTPUT: 10

INPUT: Request: IC50, test system Voltage-gated inwardly rectifying potassium channel KCNH2 (Homo sapiens), entry Cc1c(Cl)ccc(OC2CCN(C3CCN(S(=O)(=O)NC(=O)c4ccccc4)CC3)CC2)c1Cl
OUTPUT: 3.98

---

UniProt P35367: recorded log10 of Ki for assorted compounds
Transform log10 | Measure Ki | Unit µM

INPUT: Item Cc1ccc(S(=O)(=O)NC(=O)N2CCC(N3CCC(Oc4ccc(Cl)c(C)c4Cl)CC3)CC2)cc1 has what recorded log10 of Ki?
OUTPUT: -1.70

INPUT: Item O=C(NS(=O)(=O)c1ccccc1)N1CCC(N2CCC(Oc3ccc(Cl)c(Cl)c3)CC2)CC1 has what recorded log10 of Ki?
OUTPUT: -1.50

INPUT: Item O=C(NS(=O)(=O)N1CCC(N2CCC(Oc3ccc(Cl)c(Cl)c3)CC2)CC1)c1ccccc1 has what recorded log10 of Ki?
OUTPUT: -1.00

INPUT: Item O=C(NS(=O)(=O)c1ccc(F)cc1)N1CCC(N2CCC(Oc3ccc(Cl)c(Cl)c3)CC2)CC1 has what recorded log10 of Ki?
OUTPUT: -1.30

INPUT: Item O=C(NS(=O)(=O)Cc1ccccc1)N1CCC(N2CCC(Oc3ccc(Cl)c(Cl)c3)CC2)CC1 has what recorded log10 of Ki?
OUTPUT: -1.30

INPUT: Item Cc1ccccc1S(=O)(=O)NC(=O)N1CCC(N2CCC(Oc3ccc(Cl)c(Cl)c3)CC2)CC1 has what recorded log10 of Ki?
OUTPUT: -1.30

INPUT: Item O=C(NS(=O)(=O)c1cccc(C(F)(F)F)c1)N1CCC(N2CCC(Oc3ccc(Cl)c(Cl)c3)CC2)CC1 has what recorded log10 of Ki?
OUTPUT: -1.40

INPUT: Item O=C(NS(=O)(=O)c1cccc(Cl)c1)N1CCC(N2CCC(Oc3ccc(Cl)c(Cl)c3)CC2)CC1 has what recorded log10 of Ki?
OUTPUT: -2.10

INPUT: Item Cc1c(Cl)ccc(OC2CCN(C3CCN(S(=O)(=O)NC(=O)c4ccccc4)CC3)CC2)c1Cl has what recorded log10 of Ki?
OUTPUT: -1.60

These measurements were taken from ChEMBL document CHEMBL2169805.
